- ASSAY: In vitro determination of human blood elimination half-life; not determined because more than 90% of the drug was metabolized in min
- Format: ADME
- EXPERIMENTAL_PARAMETERS: whole blood
MEASUREMENT_KIND: half-life

>>> result("O=C(Cc1ccc(O)c(CN2CCCC2)c1)OCC1COc2ccccc2O1 (stereo unspecified)")
"< 1 min"

----------
- ASSAY: In vitro determination of human blood elimination half-life
- Format: ADME
- EXPERIMENTAL_PARAMETERS: whole blood
MEASUREMENT_KIND: half-life (min)

>>> number("O=C(Cc1cc(CN2CCCC2)c(O)c(CN2CCCC2)c1)OCCc1ccsc1")
34.8
>>> number("O=C(Cc1cc(CN2CCCC2)c(O)c(CN2CCCC2)c1)OCCN1C(=O)c2ccccc2C1=O")
3.8
>>> number("O=C(Cc1cc(CN2CCCC2)c(O)c(CN2CCCC2)c1)OCc1ccc2c(c1)OCO2")
9.2
>>> number("O=C(Cc1cc(CN2CCCC2)c(O)c(CN2CCCC2)c1)OCCc1ccccc1")
16.8
>>> number("O=C(Cc1cc(CN2CCCC2)c(O)c(CN2CCCC2)c1)OCC1CCc2ccccc2C1 (centres undefined)")
2.3
>>> number("O=C(Cc1cc(CN2CCCC2)c(O)c(CN2CCCC2)c1)OCC1COc2ccccc2O1 (centres undefined)")
7.1
>>> number("O=C(Cc1cc(CN2CCCC2)c(O)c(CN2CCCC2)c1)OCC1CCCO1 (centres undefined)")
3.5
>>> number("O=C(Cc1cc(CN2CCCC2)c(O)c(CN2CCCC2)c1)OCC1CCCCO1 (centres undefined)")
3.3
>>> number("O=C(Cc1cc(CN2CCCC2)c(O)c(CN2CCCC2)c1)OCc1ccco1")
2.5
>>> number("O=C(Cc1cc(CN2CCCC2)c(O)c(CN2CCCC2)c1)OCCc1cccs1")
35.9
>>> number("O=C(Cc1cc(CN2CCCC2)c(O)c(CN2CCCC2)c1)OCc1ccoc1")
10.1
>>> number("O=C(Cc1cc(CN2CCCC2)c(O)c(CN2CCCC2)c1)OCc1cccs1")
3.5
>>> number("O=C(Cc1cc(CN2CCCC2)c(O)c(CN2CCCC2)c1)OCc1c(F)c(F)c(F)c(F)c1F")
11
>>> number("O=C(Cc1cc(CN2CCCC2)c(O)c(CN2CCCC2)c1)OCCOc1ccccc1")
2.5
>>> number("O=C(Cc1cc(CN2CCCC2)c(O)c(CN2CCCC2)c1)OCc1ccc([N+](=O)[O-])cc1")
6.2
